Reference source: patent US8575338B2

I'd appreciate it if you could supply EC100 values for the items below.
target: human BKαβ1 channels (Homo sapiens, UniProt Q12791); construct: expressed in transfected cells; host or cells: CHO cells (G418 and hygromycin selection); assay: BK current in CHO cells expressing human BKαβ1 (PatchXpress whole-cell patch clamp), EC100; assay type: cell-based; conditions: drug concentration causing 100% increase of BK current
Sequence (Q12791 whole entry): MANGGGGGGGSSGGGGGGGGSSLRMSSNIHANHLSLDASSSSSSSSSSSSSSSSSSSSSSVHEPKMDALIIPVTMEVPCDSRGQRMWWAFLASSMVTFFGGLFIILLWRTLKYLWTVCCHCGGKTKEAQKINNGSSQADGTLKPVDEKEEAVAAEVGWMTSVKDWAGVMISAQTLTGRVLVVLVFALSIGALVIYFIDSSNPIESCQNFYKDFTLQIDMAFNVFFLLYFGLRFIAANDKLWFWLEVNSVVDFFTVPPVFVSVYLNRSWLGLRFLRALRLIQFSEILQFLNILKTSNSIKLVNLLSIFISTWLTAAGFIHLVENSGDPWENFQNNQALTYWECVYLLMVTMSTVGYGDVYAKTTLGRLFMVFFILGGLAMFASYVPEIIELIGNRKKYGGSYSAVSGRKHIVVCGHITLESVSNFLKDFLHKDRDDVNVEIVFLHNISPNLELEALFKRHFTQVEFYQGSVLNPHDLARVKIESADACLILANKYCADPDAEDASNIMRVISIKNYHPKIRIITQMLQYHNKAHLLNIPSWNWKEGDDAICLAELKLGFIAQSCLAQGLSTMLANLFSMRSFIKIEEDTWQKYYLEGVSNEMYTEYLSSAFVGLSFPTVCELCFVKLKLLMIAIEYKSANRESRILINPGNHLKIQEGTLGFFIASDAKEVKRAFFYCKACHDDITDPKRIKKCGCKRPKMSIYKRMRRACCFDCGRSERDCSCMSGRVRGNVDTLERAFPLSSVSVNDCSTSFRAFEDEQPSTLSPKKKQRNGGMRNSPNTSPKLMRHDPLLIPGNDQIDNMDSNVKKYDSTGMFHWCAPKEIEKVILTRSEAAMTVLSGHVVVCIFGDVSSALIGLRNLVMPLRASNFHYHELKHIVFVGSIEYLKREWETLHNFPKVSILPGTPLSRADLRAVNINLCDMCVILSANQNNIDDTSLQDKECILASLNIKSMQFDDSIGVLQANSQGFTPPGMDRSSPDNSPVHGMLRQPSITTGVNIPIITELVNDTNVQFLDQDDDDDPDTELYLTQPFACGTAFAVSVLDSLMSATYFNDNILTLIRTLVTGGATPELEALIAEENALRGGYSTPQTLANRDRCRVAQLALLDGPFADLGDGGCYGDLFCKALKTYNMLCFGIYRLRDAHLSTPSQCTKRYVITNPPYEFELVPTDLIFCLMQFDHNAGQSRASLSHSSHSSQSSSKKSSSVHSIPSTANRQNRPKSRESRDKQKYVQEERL
Sequence (Q16558 whole entry partner): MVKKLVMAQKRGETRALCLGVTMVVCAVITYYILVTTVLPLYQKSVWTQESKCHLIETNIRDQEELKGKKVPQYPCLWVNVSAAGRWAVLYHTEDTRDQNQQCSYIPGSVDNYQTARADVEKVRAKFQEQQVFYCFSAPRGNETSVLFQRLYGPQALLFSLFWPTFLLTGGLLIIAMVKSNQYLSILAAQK
Lab book: enter the figure in µM, no units written.

Return EC100 for the following molecule: COC[C@@H]1CCCN1c1cc(OC2(C(=O)[O-])CCCC2)nc(-c2ccc(Cl)c(F)c2)n1.[Na+] [Example 54] 1.31

Return EC100 for the following molecule: Cc1cc(C(F)(F)F)ccc1-c1nc(OC2(C(=O)O)CC2)nc(-c2ccc(Cl)cc2)n1 [Example 1092] 0.02

Return EC100 for the following molecule: CCOC1CCN(c2nc(OC3(C(=O)O)CC3)cc(-c3cc(Cl)c(Cl)s3)n2)CC1 [Example 1216] 0.54

Return EC100 for the following molecule: O=C([O-])C1(Oc2cc(-c3cccc(C(F)(F)F)c3)nc(-c3ccc(Cl)c(F)c3)n2)CC1.[Na+] [Example 556] 0.03
